# Test system: CHRF288-11
# Parameters: species or system AML cell lines (8); Primary HTS, single concentration about 10 uM, Cell Titer Glo viability; log10 luminescence, per cent inhibition relative to cycloheximide control
# assay-context: 72 h, relative to cycloheximide control, log10 luminescence; inhibitor
Where a name gives a salt, the structure may show the parent alone.

[
  {
    "molecule": "COc1ccc2c(-c3ccnc(Nc4cccc(OC(F)(F)F)c4)n3)cnn2n1",
    "CHRF288-11 %inh (%)": 5.074
  },
  {
    "molecule": "Cn1cc(C2=C(c3c4n(c5ccccc35)CCN(C(N)=S)C4)C(=O)NC2=O)c2ccccc21",
    "CHRF288-11 %inh (%)": 61.39
  },
  {
    "molecule": "CCN(CC)C(=O)N1CCN(C)CC1 [SJ000285736-4, DIETHYLCARBAMAZINE CITRATE]",
    "CHRF288-11 %inh (%)": -2.146
  },
  {
    "molecule": "O=C1NC(=O)C(N2CCc3ccccc32)=C1c1ccc(Cl)cc1",
    "CHRF288-11 %inh (%)": 52.52
  }
]
